# Test system: K562 CRISPRi cells
# Method summary: Perturb-seq pooled growth measurement (sgRNA counts, growth phenotype γ, relative activity)
# Type: cell-based, human
# Cond: sequencing read counts; 10 days of growth (day twelve after transduction)
Please note: Perturb-seq pooled growth sgRNA counts, d10 exactly at 5000 is F. Only values below 5000 get T.

BCR_+_23523092.23-P1P2_15: sgRNA targeting BCR, GCGCGCGGGGCCCGTCGCAG, SEQ ID NO: 129 (listed as DNA, chemistry not fully specified) :: F
RPS14_+_149829238.23-P1P2_13: sgRNA targeting RPS14, GAGGCCCGGGCGCGACAGTC, SEQ ID NO: 49 (listed as DNA, chemistry not fully specified) :: F
HSPA9_−_137911079.23-P1P2_02: sgRNA targeting HSPA9, GGAGTTGCGCGATGCGGTGG, SEQ ID NO: 133 (listed as DNA, chemistry not fully specified) :: T
BCR_+_23523092.23-P1P2_07: sgRNA targeting BCR, GCGCGCGGGGCTCGTCTCAG, SEQ ID NO: 126 (listed as DNA, chemistry not fully specified) :: T

Consider the record given below.
In: Say whether its Perturb-seq pooled growth sgRNA counts, d10 is strictly beneath 5000. Entry: DBR1_+_137893744.23-P1P2_05: sgRNA targeting DBR1, GTTTGCAGGAGTGTACACCC, SEQ ID NO: 81 (listed as DNA, chemistry not fully specified)
Out: T
